These entries and their values trace back to PubChem BioAssay.

Experiment: E. coli DRC41 culture turbidity changes, primary screen, E. coli filamentation inducer project, strain DRC41, OD650, 48 h (AID 1152);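 also: E. coli MC1000 strain DRC41 lacking acrAB efflux pump and sulA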
Details: E. coli DRC41 (acrAB sulA), higher = more signal, called active from +8 up or from −8 down
Classification field: true = z-score at or over -0.4; false = z-score under -0.4.

Given CCC1=C2CN(Cc3ccccc3Br)[C@@H]([C@@H](O)Cc3ccccc3)C2C=CCC1 (stereo partly specified) , state whether its z-score is at least -0.4. true

Is z-score for N#Cc1ccc(NN2C(C(O)CCc3ccccc3)C=CC3C(=O)N(c4ccccc4)C(=O)C32)cc1 (stereo unspecified) at or above -0.4? false

Kindly determine if z-score recorded for COc1ccc(-c2ccccc2[C@@H]2N[C@H](C(=O)O)CC[C@H]2C)cc1 is above or exactly -0.4. true

Please indicate if the recorded z-score for CCCCO[C@H]1C[C@H]2C(Br)=C[C@@]1(CO)C(=O)[C@]21CO1 meets or exceeds -0.4. true

Textbook exercise: given the entry C[C@H]1COC(=O)[C@H](Cc2ccccc2)NC(=O)[C@@H](C)COC(=O)[C@H](Cc2ccccc2)NC1=O , state whether its z-score is greater than or equal to -0.4. true

Exam item: decide whether the reported z-score for CCOC(=O)C[C@H]1[C@H](OC(=O)Cc2ccc3c(c2)OCO3)[C@@H](NC(=O)c2ccc3ccccc3c2)c2cc(OCCCO)ccc2N1C(=O)Cc1ccc(OC)cc1 is at least -0.4. true

Dear colleague, could you confirm whether CN(C)c1ccc(C(O)C2C=CC3C(=O)NC(=O)C3N2Nc2ccc(Cl)cc2Cl)cc1 (stereo unspecified) has z-score at or above -0.4? false

Determine whether measured z-score meets or exceeds -0.4 for CCOC(=O)C[C@H]1[C@H](OC(=O)c2cc3ccccc3oc2=O)[C@@H](NC(=O)C2CCCCC2)c2cc(OCCCO)ccc2N1C(=O)c1ccc2ccccc2n1 false

For this compound, is measured z-score -0.4 or higher? C=CC[C@]1(C(=O)O)N=C(c2ccc(OCCCO)cc2)O[C@H]1c1ccccc1 true

Kindly determine if z-score recorded for C[C@@H]1NC(=O)[C@H](Cc2ccccc2)NC(=O)[C@@]23C(=O)N[C@@H](Cc4ccccc4)C2[C@H](C)[C@@]2(C)O[C@H]2C3/C=C/C/C=C\CNC1=O (stereo partly specified) is above or exactly -0.4. false

Please tell me: is the compound O=C1C2C=CC(C(O)C#Cc3ccccc3)N(Nc3ccccc3)C2C(=O)N1c1ccccc1 (stereo unspecified) at or over -0.4 in terms of z-score? false

Is z-score for C=C[C@H](OC)[C@@H](OC(=O)Nc1ccc(SC)cc1)c1ccc(O)c(F)c1 at or above -0.4? true

Exam item: decide whether the reported z-score for N#Cc1ccc(NN2C(C(O)c3ccc(I)cc3)C=CC3C(=O)N(c4ccccc4)C(=O)C32)cc1 (stereo unspecified) is at least -0.4. false

Hello, I need to know if C=CCC(OC(C)=O)[C@@H]1[C@@H](N(Cc2ccc(-c3cccc(C(F)(F)F)c3)o2)C(=O)Cc2ccc(F)cc2)c2cc(OCCCO)ccc2N1C(=O)c1ccc(-c2ccccc2)cc1 (stereo partly specified) has measured z-score not below -0.4. Thanks! false

Please indicate if the recorded z-score for CC(C)CN1C(=O)[C@@]2(Cc3ccccc31)c1ccccc1C(=O)N(C1CCCCC1)[C@H]2c1ccc(CO)cc1 meets or exceeds -0.4. true
